Assayed Target: SNX2 (Homo sapiens)
Construct: PX domain only, N-terminal GST removed by thrombin, E. coli
Sequence (O60749 140-269 limits assumed): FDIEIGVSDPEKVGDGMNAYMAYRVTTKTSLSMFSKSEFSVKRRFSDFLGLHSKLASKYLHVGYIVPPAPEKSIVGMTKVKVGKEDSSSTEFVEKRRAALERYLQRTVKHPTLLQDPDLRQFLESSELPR
Procedure Text: biochemical
Condition Summary: ITC, 20 uM PX domain in cell
Recorded Endpoint: Kd (µM)
Form entry: value (µM) — number only.

Summary: CCCCCCCC(=O)OC[C@H](COP(=O)(O)O[C@@H]1[C@H](O)[C@H](OP(=O)(O)O)[C@@H](O)[C@H](OP(=O)(O)O)[C@H]1O)OC(=O)CCCCCCC [PtdIns(3,5)P2 headgroup analogue] , SNX2 (Homo sapiens), Kd = 35.8

====

Assayed Target: SNX23 (Homo sapiens)
Sequence (Q96L93 1-1317): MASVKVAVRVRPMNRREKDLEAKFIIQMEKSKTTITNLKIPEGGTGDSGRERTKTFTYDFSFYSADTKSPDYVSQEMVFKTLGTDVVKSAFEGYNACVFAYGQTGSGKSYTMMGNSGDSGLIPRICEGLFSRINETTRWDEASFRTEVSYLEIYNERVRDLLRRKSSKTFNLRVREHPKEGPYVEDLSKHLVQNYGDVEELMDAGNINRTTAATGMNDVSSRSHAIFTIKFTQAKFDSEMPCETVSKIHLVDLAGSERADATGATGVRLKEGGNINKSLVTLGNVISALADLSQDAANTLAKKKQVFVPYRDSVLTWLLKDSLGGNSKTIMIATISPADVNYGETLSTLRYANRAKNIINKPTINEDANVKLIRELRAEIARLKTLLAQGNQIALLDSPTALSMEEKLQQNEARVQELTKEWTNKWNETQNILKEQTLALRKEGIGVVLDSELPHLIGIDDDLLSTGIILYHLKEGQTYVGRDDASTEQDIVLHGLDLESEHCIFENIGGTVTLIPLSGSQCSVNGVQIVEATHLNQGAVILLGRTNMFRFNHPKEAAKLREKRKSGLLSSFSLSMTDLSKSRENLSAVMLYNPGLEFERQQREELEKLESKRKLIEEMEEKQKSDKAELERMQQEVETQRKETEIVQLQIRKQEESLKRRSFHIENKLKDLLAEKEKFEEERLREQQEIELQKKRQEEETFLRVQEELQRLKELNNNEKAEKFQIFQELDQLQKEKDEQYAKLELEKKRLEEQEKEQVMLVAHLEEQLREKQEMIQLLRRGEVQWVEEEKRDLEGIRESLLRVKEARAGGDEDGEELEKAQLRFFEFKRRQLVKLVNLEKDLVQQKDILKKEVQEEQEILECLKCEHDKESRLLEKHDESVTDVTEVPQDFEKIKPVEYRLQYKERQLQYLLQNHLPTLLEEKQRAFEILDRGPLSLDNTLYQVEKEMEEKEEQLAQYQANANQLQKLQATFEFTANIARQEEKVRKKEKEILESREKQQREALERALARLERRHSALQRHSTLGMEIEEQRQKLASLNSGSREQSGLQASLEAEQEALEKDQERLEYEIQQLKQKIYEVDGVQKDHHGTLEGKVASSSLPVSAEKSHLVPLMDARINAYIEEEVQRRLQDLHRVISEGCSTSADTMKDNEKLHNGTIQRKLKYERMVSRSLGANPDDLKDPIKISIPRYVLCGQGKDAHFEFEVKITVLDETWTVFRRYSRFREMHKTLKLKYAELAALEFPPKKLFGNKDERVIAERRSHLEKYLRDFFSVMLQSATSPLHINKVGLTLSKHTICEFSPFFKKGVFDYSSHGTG
Recorded Endpoint: pKd
Conceptually, pKd converts a concentration in mol/L into minus its log10.

Quick note, pKd for CCCCCCCC(=O)OC[C@H](COP(=O)(O)O[C@@H]1[C@H](O)[C@H](OP(=O)(O)O)[C@@H](O)[C@H](OP(=O)(O)O)[C@H]1O)OC(=O)CCCCCCC [PtdIns(3,5)P2 headgroup analogue] landed at 4.94

====

Assayed Target: SNX25 PX domain (Homo sapiens, UniProt Q9H3E2)
Construct: PX domain only, 15N-labelled, from GST fusion in E. coli
Sequence (Q9H3E2 506-628): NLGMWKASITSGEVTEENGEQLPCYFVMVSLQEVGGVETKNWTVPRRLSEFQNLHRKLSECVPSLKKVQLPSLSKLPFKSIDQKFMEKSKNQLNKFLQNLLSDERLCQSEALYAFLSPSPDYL
Procedure Text: biochemical
Condition Summary: ITC, 20 uM PX domain in cell
Text: We next used isothermal titration calorimetry (ITC) to measure the binding of selected PX domains to soluble phosphoinositide headgroup analogues (Supplementary Figures 2, 3; Supplementary Table 4). These experiments quantitatively supported the results of the liposome pelleting assays for all of the PX domains tested. […]
Recorded Endpoint: pKd
For clarity, pKd is expressed as the negative log10 of concentration in mol/L.

pKd reading for CCCCCCCC(=O)OC[C@H](COP(=O)(O)O[C@@H]1[C@H](O)[C@H](OP(=O)(O)O)[C@@H](O)[C@H](OP(=O)(O)O)[C@H]1O)OC(=O)CCCCCCC [PtdIns(3,5)P2 headgroup analogue] : 4.92

Provenance of the data: paper PMC6449406
